Reference source: ChEMBL document CHEMBL1128592

- assay.target: Human immunodeficiency virus type 1 reverse transcriptase (Human immunodeficiency virus 1) (UniProt Q72547)
- procedure.text: Concentration which reduced the cytopathic effect of HIV-1 in MT-4 infected cells
- Assay type: functional, cell-based
Mark true (1) only for ED50 values smaller than 1 µM; exact matches and larger values are false (0).

The examples below pair each entry with its known result.
Cc1ccccc1CCNC(=S)Nc1nccs1
true (1)
COc1cccc(CCNC(=S)Nc2nccs2)c1
true (1)
CCCc1csc(NC(=S)NCCc2ccccc2)n1
false (0)
S=C(NCCc1cccnc1)Nc1nccs1
false (0)
CCOC(=O)c1csc(NC(=S)NCCc2ccccc2)n1
true (1)
CC(C/N=C(\S)Nc1nccs1)c1ccccc1 (configuration not stated)
false (0)

Lab note: next compound to report on.
query: Quick check: does Oc1ccccc1CCNC(=S)Nc1nccs1 have ED50 under 1 µM?
result: false (0)

----------
- assay.target: Human immunodeficiency virus type 1 reverse transcriptase (Human immunodeficiency virus 1) (UniProt Q72547)
- procedure.text: Concentration which reduced the cytopathic effect of HIV-1 in MT-4 infected cells
- Format: functional, cell-based
Would you kindly list ED50 for each of these compounds?
Numbers only, in nM.

The following compounds have reported results that may help.
CCc1csc(NC(=S)NCCc2c(F)cccc2F)n1
80
CCOc1cccc(CCNC(=S)Nc2nccs2)c1
150

Each compound below has a reported value. Please supply its ED50.
1. Fc1cccc(F)c1CCNC(=S)Nc1nccs1
2. O=[N+]([O-])c1ccccc1CCNC(=S)Nc1nccs1
3. Fc1cccc(F)c1CC/N=C(\S)Nc1ccc(Br)cn1
4. CCCCc1csc(NC(=S)NCCc2ccccc2)n1

result:
20
1100
10
1300

----------
- procedure.text: Concentration which reduced the viability of the uninfected MT-4 cells to 50% compared to untreated control cells
- measurement.context: MT4
measure: log10(CD50) (log10 of the value in µM)
Response schema: value (number) is log10 of CD50 in units of µM.

Recorded log10(CD50), per entry:
CC(Cc1ccccc1)/N=C(\S)Nc1nccs1 (stereo not drawn)
1.94
COc1ccc(CCNC(=S)Nc2nccs2)cc1
1.83
O=C(NCCc1ccccc1)Nc1nccs1
2.05
[N-]=[N+]=Nc1ccccc1CC/N=C(\S)Nc1nccs1
1.96
CCCOc1cccc(CCNC(=S)Nc2nccs2)c1
1.88

Hi, could you look up log10(CD50) for each item in my list?
1. Fc1cccc(F)c1CC/N=C(\S)Nc1ccc(Br)cn1
2. COc1cccc(OC)c1CCNC(=S)Nc1nccs1
3. N#Cc1csc(NC(=S)NCCc2c(F)cccc2F)n1
4. CCOc1cccc(F)c1CCNC(=S)Nc1nccs1

result:
1.83
1.57
1.00
1.57

Report log10(CD50) for every entry below.
1. Oc1ccccc1CCNC(=S)Nc1nccs1
2. CCCCCCOc1cccc(CC/N=C(\S)Nc2nccs2)c1
3. FC(F)(F)c1csc(NC(=S)NCCc2ccccc2)n1
4. S=C(NCCc1ccco1)Nc1nccs1
5. S=C(NCCc1ccncc1)Nc1nccs1

result:
1. 2.00
2. 0.90
3. 0.95
4. 1.95
5. 2.05

----------
- assay.target: Human immunodeficiency virus type 1 reverse transcriptase (Human immunodeficiency virus 1, UniProt Q72547)
Would you mind telling me the reported log10(IC50) of each entry?
Heads up, the numbers here are log10 of IC50 in nM units.

Examples from the recorded data:
CCc1cc(NCc2nc3c(Cl)ccc(Cl)c3o2)c(O)nc1C [L-697661]
2.00
Cc1ccccc1CCNC(=S)Nc1nccs1
1.90
S=C(NCCc1ccccc1)Nc1nc2ccccc2s1
2.30
COc1ccc(CCNC(=S)Nc2nccs2)cc1
2.54
S=C(NCCCc1ccccc1)Nc1nccs1
3.65
O=[N+]([O-])c1ccccc1CCNC(=S)Nc1nccs1
2.18
Cc1ccc(NC(=S)NCCc2ccccc2)nc1
1.48
Fc1cccc(F)c1CCNC(=S)Nc1nccs1
1.00
CCCCc1csc(NC(=S)NCCc2ccccc2)n1
3.40
S=C(NCCc1ccccc1)Nc1cnccn1
3.59

Please look at the items below and tell me log10(IC50) for each one, in order.
1. CCCc1csc(NC(=S)NCCc2ccccc2)n1
2. S=C(NCCc1ccco1)Nc1nccs1
3. N#Cc1csc(NC(=S)NCCc2c(F)cccc2F)n1
4. Cc1ccc(NC(=S)NCCc2ccccn2)nc1
5. COc1ccc(Br)cc1CCNC(=S)Nc1nccs1
6. N#Cc1csc(NC(=S)NCCc2ccccc2)n1
7. CCOc1cccc(F)c1CCNC(=S)Nc1nccs1

result:
[2.54, 2.81, 0.78, 1.70, 1.48, 2.30, 1.00]

For each of the items listed, what is its log10(IC50)?
1. CC(C)Oc1cccc(CCNC(=S)Nc2nccs2)c1
2. S=C(NCCc1ccccc1)Nc1ccc(Br)cn1

result:
1. 2.60
2. 1.18
